- Measured target: Kinase A and SpoOF (Bacillus subtilis)
- Sequence (P16497 whole entry): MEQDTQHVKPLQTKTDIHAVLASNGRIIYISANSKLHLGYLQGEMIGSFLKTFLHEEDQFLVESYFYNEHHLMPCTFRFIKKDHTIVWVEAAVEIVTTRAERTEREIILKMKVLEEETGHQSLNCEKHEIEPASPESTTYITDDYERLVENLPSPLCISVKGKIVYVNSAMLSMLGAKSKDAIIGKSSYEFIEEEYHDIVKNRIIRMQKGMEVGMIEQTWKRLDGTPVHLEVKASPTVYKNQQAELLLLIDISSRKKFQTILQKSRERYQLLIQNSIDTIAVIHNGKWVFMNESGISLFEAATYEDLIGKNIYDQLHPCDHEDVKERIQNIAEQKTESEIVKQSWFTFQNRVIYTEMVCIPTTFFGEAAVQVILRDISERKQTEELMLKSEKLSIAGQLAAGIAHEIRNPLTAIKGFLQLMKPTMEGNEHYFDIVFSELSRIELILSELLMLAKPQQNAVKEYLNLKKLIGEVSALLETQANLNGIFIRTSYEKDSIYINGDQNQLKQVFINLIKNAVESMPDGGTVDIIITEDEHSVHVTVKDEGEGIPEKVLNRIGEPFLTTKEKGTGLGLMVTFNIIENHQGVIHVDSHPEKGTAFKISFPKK
- Experiment: Autophosphorylation of Kinase A and Transphosphorylation of SPoOF Assay
- Assay type: biochemical
- Recorded conditions: inhibition of Kinase A autophosphorylation / SpoOF transphosphorylation, [32P]ATP, gel, phosphoimager
Assay metric: IC50

Molecule: CNCCCc1ccc(OCCC2(C(C)C)C=CCCC2)cc1 (stereo not shown) [Compound 35]
Measured target: Kinase A and SpoOF (Bacillus subtilis)
Val: 468.4 mM
--
Molecule: NCCCc1cnc(NCCC2(Cc3ccccc3)C=CCCC2)nc1 (stereo not shown) [Compound 49]
Measured target: Kinase A and SpoOF (Bacillus subtilis)
Val: 162 mM
--
Molecule: CN(C)CCCc1ccc(OCCC2(Cc3ccccc3)C=CCCC2)cc1 (stereo not shown) [Compound 20]
Measured target: Kinase A and SpoOF (Bacillus subtilis)
Val: 122 mM

The record that follows has no IC50 shown yet.
Value lookup for IC50; key = COc1ccc(CC2(CCOc3ccc(CCN)cc3)C=CCCC2)cc1 (stereo not shown) [Compound 41] 82.5 mM
